# Test system: UO-31 renal
# testProtocol: NCI tumour cell line growth inhibition, 48 h
recordedEndpoint: TGI

Here is how some compounds turned out for TGI.
[[record]]
compound = "CCOC(=O)CSc1nc(-c2ccc(OC)cc2)c(C#N)c(=O)[nH]1"
recordedendpoint = "TGI"
result = "> 100 µM"

[[record]]
compound = "Nn1c(CCCl)nc2c(Br)cc(Br)cc2c1=O"
recordedendpoint = "TGI"
result = "> 75.6 µM"

[[record]]
compound = "O=S(=O)(O)c1cc(S(=O)(=O)O)c2c(N=Nc3cccc4ccccc34)c(O)ccc2c1"
recordedendpoint = "TGI"
result = "> 100 µM"

[[record]]
compound = "O=C1c2ccccc2C(=O)N1/N=C\\c1ccc(Br)cc1"
recordedendpoint = "TGI"
result = "> 100 µM"

[[record]]
compound = "O=C(O)c1ccc(Nc2ccnc3cc(Cl)ccc23)cc1O"
recordedendpoint = "TGI"
result = "> 100 µM"

[[record]]
compound = "CON(C)C(=O)C(Cc1ccccc1)NC(=O)OC(C)(C)C (configuration not stated)"
recordedendpoint = "TGI"
result = "> 100 µM"

[[record]]
compound = "COc1ccc(C(=S)c2cc(OC)c(OC)c(OC)c2)cc1OC(=O)CCl"
recordedendpoint = "TGI"
result = "> 95.7 µM"

[[record]]
compound = "CCOC(=O)[C@H](CSSc1ncnc2cc[nH]c12)NC(=O)[C@@H](C)c1ccc2cc(OC)ccc2c1"
recordedendpoint = "TGI"
result = "> 100 µM"

[[record]]
compound = "CCCCCCCC/C=C\\CCCCCCCCNc1ccn(C2OC(COP(=O)(O)OC3CC(n4cc(F)c(=O)[nH]c4=O)OC3CO)C(O)C2O)c(=O)n1 (configuration not stated)"
recordedendpoint = "TGI"
result = "> 100 µM"

[[record]]
compound = "CC(=O)[CH-]C(=O)c1ccccc1.CC(=O)[CH-]C(=O)c1ccccc1.O=C([O-])C[O-].O=C([O-])C[O-].[Ti+4]"
recordedendpoint = "TGI"
result = "> 100 µM"


Dear reader, for each entry below, please note its TGI.
1. O=C(O)C(=O)Cc1ccc2c(c1)OCO2
2. O=C(OC(C(=O)O)C(OC(=O)c1ccccc1)C(=O)O)c1ccccc1 (configuration not stated) (tested in a mixture with another compound)

-- reply
1: > 100 µM; 2: > 100 µM

====

# System: SK-MEL-28 melanoma
# testProtocol: NCI tumour cell line growth inhibition, 48 h
recordedEndpoint: TGI

Here is how some compounds turned out for TGI.
[[record]]
compound = "Cn1c(=O)n(-c2c3ccccc3c(Cl)c3ccccc23)n(C(C)(C)C)c1=O"
recordedendpoint = "TGI"
result = "> 100 µM"

[[record]]
compound = "CCc1cc(-c2nsc(=O)o2)c(S(=O)(=O)CC)s1"
recordedendpoint = "TGI"
result = "> 100 µM"


Dear reader, for each entry below, please note its TGI.
1. N#CN=Nc1cc(Cl)c(N=NC#N)cc1Cl
2. COc1ccc(C(=O)/C=C/c2cc3ccccc3[nH]c2=O)cc1
3. CC1=CC(=O)C(C)(C2=NC(C)(C)CO2)c2ccccc21 (stereo unspecified)

-- reply
1. > 100 µM
2. > 67.4 µM
3. > 100 µM

-- ask Output measured TGI for this item: COc1cccc(-c2nn(-c3ccccc3)cc2-c2ccnc(NCCNS(=O)(=O)c3ccc(C(F)(F)F)cc3)c2)c1
-- reply > 100 µM

====

Could you please report measured TGI for the items listed next?
# System: NCI-H460 lung
# testProtocol: NCI tumour cell line growth inhibition, 48 h

[[record]]
compound = "CCOC(=O)c1ccc2c(c1)nc1n2C(c2c(F)cccc2F)SC1 (centres undefined)"
tgt = "NCI-H460 lung"
result = "> 100 µM"

[[record]]
compound = "CC(=O)O[C@H]1CC[C@H]2[C@@H]3CCc4cc(O)c(I)cc4[C@H]3CC[C@]12C"
tgt = "NCI-H460 lung"
result = "26.9 µM"

[[record]]
compound = "N#CN=Nc1cc(Cl)c(N=NC#N)cc1Cl"
tgt = "NCI-H460 lung"
result = "> 100 µM"

[[record]]
compound = "CC(C#N)c1cn(S(=O)(=O)c2ccccc2)c2ccccc12 (centres undefined)"
tgt = "NCI-H460 lung"
result = "> 100 µM"

[[record]]
compound = "CCN(Cc1ccc(F)cc1)c1ccc(CO)c(Cl)c1"
tgt = "NCI-H460 lung"
result = "11.7 µM"


Dear reader, for each entry below, please note its TGI.
1. O=C(Sc1c(-c2ccccc2)c(=O)n(-c2ccccc2)c(=S)n1-c1ccccc1)c1ccc(Cl)cc1
2. O=C1C=C(Nc2ccccc2)c2ncccc2C1=O
3. CCOC(=O)C12CCCC1(O)N(NC(=O)c1cccc(Cl)c1)C(C)=C2C(=O)OC (centres undefined)
4. O=c1ncc(-c2ccc(C(F)(F)F)cc2)c(NC2CCCCCC2)[nH]1

-- reply
> 100 µM
1.11 µM
> 100 µM
35 µM

====

# Tested on: MALME-3M melanoma
# testProtocol: NCI tumour cell line growth inhibition, 48 h
Could you please report measured TGI for the items listed next?

Dear reader, for each entry below, please note its TGI.
1. COC(=O)/C=C\c1ccc2c(c1)CC1(C2)Cc2ccc(/C=C/C(=O)OC)cc2C1 (stereo not given)
2. CCOC(=O)C(NNS(=O)(=O)c1ccc(C)cc1)S(=O)(=O)C(F)(F)C(F)(F)C(F)(F)C(F)(F)F (stereo not given)
3. O=c1c(O)c(-c2ccc(O)c(O)c2)oc2cc(O)ccc12
4. COc1ccccc1/C=C/C(=O)c1sc(-c2cccnc2)nc1C
5. CC12CN(CC[N+](C)(C)C)CC1(C)C1CCC2O1 (stereo not given)

-- reply
["> 31.6 µM", "> 100 µM", "> 77 µM", "> 100 µM", "> 100 µM"]

====

# Test system: SW-620 colon
# testProtocol: NCI tumour cell line growth inhibition, 48 h; in the data active means GI50 below about 0.43 µM; inactive means the rest
Bench note: report the call from active, inactive

Study these solved cases before continuing.
[[record]]
substancesmiles = "COc1cc2[nH]c(C(=O)c3cc(OC)c(OC)c(OC)c3)c(N)c2cc1C#CCO"
labelclass = "active"

[[record]]
substancesmiles = "COc1ccc(C(=O)/C=C/c2cc3ccccc3[nH]c2=O)cc1"
labelclass = "inactive"


Below: the item to evaluate.
-- ask Which outcome was assigned to CC(=O)[CH-]C(=O)c1ccccc1.CC(=O)[CH-]C(=O)c1ccccc1.O=C([O-])C[O-].O=C([O-])C[O-].[Ti+4] in this test?
-- reply inactive

====

# System: RXF 393 renal
# testProtocol: NCI tumour cell line growth inhibition, 48 h
Could you please report measured TGI for the items listed next?

Here is how some compounds turned out for TGI.
[[record]]
compound = "COC1=CC(=O)c2ccc(C(C)C)cc2C1(C)C1=NC(C)(C)CO1 (stereo unspecified)"
result = "> 100 µM"

[[record]]
compound = "O=C1c2ccccc2C(=O)N1/N=C\\c1ccc(Br)cc1"
result = "> 10 µM"

[[record]]
compound = "CC[O-].CC[O-].[O-]c1ccccc1C=Nc1ccccc1.[O-]c1ccccc1C=Nc1ccccc1.[Ti+4]"
result = "> 100 µM"

[[record]]
compound = "CN(C)c1ccc(N=Nc2cccc3ccoc23)cc1"
result = "> 100 µM"

[[record]]
compound = "OCCN1CCN(CCO)Cc2ccccc2OCCOc2ccccc2C1"
result = "> 100 µM"


In the following, a different compound is considered.
-- ask Output measured TGI for this item: O=C(O)C(Cc1ccc(O)cn1)NC(=O)C(F)(F)F (stereo unspecified)
-- reply > 100 µM

====

Could you please report measured TGI for the items listed next?
# Test system: MDA-MB-435
# testProtocol: NCI tumour cell line growth inhibition, 48 h

[[record]]
compound = "COc1ccc(C(=S)c2cc(OC)c(OC)c(OC)c2)cc1OC(=O)CCl"
tgt = "MDA-MB-435"
result = "< 0.0108 µM"

[[record]]
compound = "O=C(Sc1c(-c2ccccc2)c(=O)n(-c2ccccc2)c(=S)n1-c1ccccc1)c1ccc(Cl)cc1"
tgt = "MDA-MB-435"
result = "> 100 µM"

[[record]]
compound = "CCOC(=O)CSc1nc(-c2ccc(OC)cc2)c(C#N)c(=O)[nH]1"
tgt = "MDA-MB-435"
result = "> 100 µM"

[[record]]
compound = "CC(C)=CCNc1ncnc2c1ncn2CCC(=O)OC(C)(C)C"
tgt = "MDA-MB-435"
result = "> 100 µM"

[[record]]
compound = "O=C(O)C1C2C=CC(O2)C1C(=O)Nc1ccccc1 (stereo not drawn)"
tgt = "MDA-MB-435"
result = "> 100 µM"


Dear reader, for each entry below, please note its TGI.
1. COC(=O)/C=C\c1ccc2c(c1)CC1(C2)Cc2ccc(/C=C/C(=O)OC)cc2C1 (stereo not drawn)
2. CON(C)C(=O)C(Cc1ccccc1)NC(=O)OC(C)(C)C (stereo not drawn)
3. COc1ccc(C)c2c1N[C@](C)([C@]1(C)Nc3c(OC)ccc(C)c3C1=O)C2=O
4. O=c1c2cccnc2[nH]c2ccc3scnc3c12
5. Cc1cc(Cl)ccc1Nc1sc(C(=O)c2cc3cc(Cl)ccc3o2)c(N)c1C#N

-- reply
1. > 31.6 µM
2. > 100 µM
3. > 100 µM
4. > 10 µM
5. > 100 µM

Dear reader, for each entry below, please note its TGI.
1. CCOC(=O)[C@H](CSSc1ncnc2cc[nH]c12)NC(=O)[C@@H](C)c1ccc2cc(OC)ccc2c1
2. CC12CN(CC[N+](C)(C)C)CC1(C)C1CCC2O1 (stereo not drawn)
3. CC1(C)SC2C(C(=O)O)N=C(Cc3ccccc3)N2C1C(=O)O (stereo not drawn)
4. CCC1(O)CC(OC2CC(N(C)C)C(OC3CC(O)C(OC4OC(C)C(=O)C=C4N)C(C)O3)C(C)O2)c2c(O)c3c(c(O)c2C1C(=O)OC)C(=O)c1cccc(O)c1C3=O (stereo not drawn)

-- reply
> 100 µM
> 100 µM
> 100 µM
0.107 µM

Dear reader, for each entry below, please note its TGI.
1. COc1cc2c(c(OC)c1OC)-c1ccc(OC)c(=O)cc1[C@@H](NC(=O)CCl)CC2
2. O=C1C2CC3C(CC2C(=O)[N]1[Sn]([c]1ccccc1)([c]1ccccc1)[c]1ccccc1)C1(Cl)C(Cl)=C(Cl)C3(Cl)C1(Cl)Cl (stereo not drawn)
3. O=C(NNC(=S)Nc1ccccc1)C12CC3CC(CC(C3)C1)C2
4. CCCCCCCC1c2cc3[nH]c(cc4nc(cc5[nH]c(cc(n2)[C@@]1(C)CC(=O)N(C)C)c(C)c5CCC(=O)O)C(CCC(=O)O)=C4C)cc3C (stereo partly drawn)

-- reply
< 0.01 µM
0.257 µM
> 100 µM
92.5 µM

This collection of values is drawn from PubChem BioAssay (NCI).
